assaySystem: HLA-B*15:42
testProtocol: IEDB peptide-MHC binding, purified MHC/competitive/fluorescence; filed as Kd, often an IC50 or EC50 that approximates it; bounds were set here for any values at or beyond the usual limits of such assays
conditionDescription: source organism: Yersinia pestis Nepal516
pKd: −log10 of the molar value.
Answer each item with its documented pKd.

- sequenceEntry: "RAMRMVYYL"
  pKd: "≤ 5.30"

Okay, now this sequence:
For the sequence "MVLSGTLAY" , what pKd is on record?
≤ 5.30

---

assaySystem: HLA-A*23:01
testProtocol: IEDB peptide-MHC binding, purified MHC/competitive/radioactivity; filed as Kd, often an IC50 or EC50 that approximates it; bounds were set here for any values at or beyond the usual limits of such assays
conditionDescription: source organism: Mammarenavirus whitewaterense
testReadout: Kd (nM)
One number for each entry, in nM.

Quick check: Kd on HLA-A*23:01, item "PYIASRSQI" ?
492

---

assaySystem: HLA-A*31:01
testProtocol: IEDB peptide-MHC binding, purified MHC/competitive/radioactivity; filed as Kd, often an IC50 or EC50 that approximates it; bounds were set here for any values at or beyond the usual limits of such assays
conditionDescription: source organism: Dengue virus 3 Martinique/1243/1999
Answer each item with its documented Kd.
Give bare numbers, in nM.

Please report Kd for every entry that follows.
1. AQRRGRVGR
2. LVTPSMTMR
3. HTWQKQTQR

[13.2, 343, 2.88]

---

assaySystem: HLA-A*03:01
testProtocol: IEDB peptide-MHC binding, purified MHC/direct/fluorescence; filed as Kd, often an IC50 or EC50 that approximates it; bounds were set here for any values at or beyond the usual limits of such assays
conditionDescription: source organism: Influenza A virus (A/tiger/Thailand/CU-T4/04(H5N1))
testReadout: Kd

For the sequence "FVRTLFQQM" , what Kd is on record?
≥ 20 µM

---

assaySystem: HLA-B*44:02
testProtocol: IEDB peptide-MHC binding, purified MHC/direct/fluorescence; filed as Kd, often an IC50 or EC50 that approximates it; bounds were set here for any values at or beyond the usual limits of such assays
conditionDescription: source organism: Francisella tularensis subsp. tularensis FSC033
testReadout: Kd

For the sequence "ETLDVFGPI" , what Kd is on record?
≥ 20 µM

---

assaySystem: HLA-B*57:01
testProtocol: IEDB peptide-MHC binding, purified MHC/direct/fluorescence; filed as Kd, often an IC50 or EC50 that approximates it; bounds were set here for any values at or beyond the usual limits of such assays
conditionDescription: source organism: Mycobacterium tuberculosis str. Haarlem
testReadout: Kd

For the sequence "RLGWRTLDF" , what Kd is on record?
≥ 20 µM

---

assaySystem: HLA-B*58:01
testProtocol: IEDB peptide-MHC binding, purified MHC/direct/fluorescence; filed as Kd, often an IC50 or EC50 that approximates it; bounds were set here for any values at or beyond the usual limits of such assays
conditionDescription: source organism: Human immunodeficiency virus 1
testReadout: Kd (nM)
Give bare numbers, in nM.

For the sequence "NSSKVSQNY" , what Kd is on record?
742

---

assaySystem: HLA-A*31:01
testProtocol: IEDB peptide-MHC binding, purified MHC/competitive/fluorescence; filed as Kd, often an IC50 or EC50 that approximates it; bounds were set here for any values at or beyond the usual limits of such assays
conditionDescription: source organism: Giardia lamblia ATCC 50803
testReadout: Kd (nM)
Numbers only, in nM.

For the sequence "TTHSKGATK" , what Kd is on record?
454
